- target.entity: Cathepsin K (Homo sapiens)
- Sequence (P43235 115-329, species assumed): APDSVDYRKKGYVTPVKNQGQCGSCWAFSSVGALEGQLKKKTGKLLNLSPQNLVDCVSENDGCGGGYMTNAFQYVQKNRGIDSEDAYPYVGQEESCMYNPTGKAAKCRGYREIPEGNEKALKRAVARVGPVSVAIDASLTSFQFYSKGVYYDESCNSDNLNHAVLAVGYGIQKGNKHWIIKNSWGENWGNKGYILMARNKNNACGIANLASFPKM
- test.description: Cathepsin K inhibition, fluorogenic peptide substrate kinetic assay (selectivity)
- Format: biochemical
- experimental.context: ratio of cathepsin K inhibition constant to cathepsin S inhibition constant
quantity: Selectivity for Cat. S over Cat. K

Here are 6 molecules together with their reported answers.
{"given.smiles": "CC(=O)NS(=O)(=O)c1ccc(NC[C@H](C)NC(=O)O[C@@H](CC2CCCCC2)C(=O)N2CCOCC2)cc1", "Selectivity for Cat. S over Cat. K": "+ (+, >10)"}
{"given.smiles": "CC1(C)CN(C[C@@H](NC(=O)[C@@H](CC(=O)N2CCOCC2)c2ccc(C(F)(F)F)cc2)C2CC2)c2ccc(F)cc21", "Selectivity for Cat. S over Cat. K": "+ (+, >10)"}
{"given.smiles": "C[C@@H](CNc1ccc(OC(F)(F)F)cc1)NC(=O)[C@@H](CC(=O)N1CCS(=O)(=O)CC1)CC1CCCCC1", "Selectivity for Cat. S over Cat. K": "++ (++, >100)"}
{"given.smiles": "CCC[C@@H](CNc1ccc(OC(F)(F)F)cc1)NC(=O)[C@@H](CC(=O)N1CCOCC1)CC1CCCCC1", "Selectivity for Cat. S over Cat. K": "+ (+, >10)"}
{"given.smiles": "Cc1cc(NC[C@H](C)NC(=O)[C@H](CC2CCCCC2)NC(=O)N2CCOCC2)no1", "Selectivity for Cat. S over Cat. K": "+ (+, >10)"}
{"given.smiles": "C[C@@H](CNc1ccc(OC(F)(F)F)cc1)NC(=O)[C@@H](CC(=O)N1CCOCC1)c1ccc(F)cc1", "Selectivity for Cat. S over Cat. K": "++ (++, >100)"}

Next molecule, Selectivity for Cat. S over Cat. K to be filled in.
Ask: Please give the documented Selectivity for Cat. S over Cat. K of COc1ccc(NCCNC(=O)[C@H](CC2CCCCC2)NC(=O)N2CCOCC2)cc1
Reply: ++ (++, >100)

Source listed as patent US7732449B2.
